- measured target: human KAT II (hKAT II) enzyme (Homo sapiens, UniProt Q8N5Z0)
- Sequence (Q8N5Z0 30-425): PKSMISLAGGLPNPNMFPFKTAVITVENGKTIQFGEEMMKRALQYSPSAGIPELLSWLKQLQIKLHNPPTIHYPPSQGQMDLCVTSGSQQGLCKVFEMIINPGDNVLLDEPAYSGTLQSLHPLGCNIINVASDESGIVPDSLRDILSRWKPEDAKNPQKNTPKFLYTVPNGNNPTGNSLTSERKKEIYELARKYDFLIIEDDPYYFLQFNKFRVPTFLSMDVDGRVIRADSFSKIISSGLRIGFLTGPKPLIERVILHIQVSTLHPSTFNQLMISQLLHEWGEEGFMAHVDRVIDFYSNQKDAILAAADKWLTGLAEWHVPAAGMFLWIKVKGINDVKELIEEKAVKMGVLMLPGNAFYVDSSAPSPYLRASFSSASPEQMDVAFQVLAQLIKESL
- measurement protocol: KAT II Inhibition Spectra Assay
- Format: biochemical
- condition summary: Table 6; hKAT II, decrease in OD370, 37° C., 15-20 h; read-out: KATII IC50
Structures can show the parent of a compound that is named as a salt.
Label Met when IC50 < 100 nM; otherwise Not met.

Previously resolved entries follow.
> print(dat)
                                   compound      cat
1  N[C@H]1Cc2cc(Oc3ccc(F)c(F)c3)ccc2N(O)C1=O [Example 162, trifluoroacetate salt]      Met
2  N#Cc1cccc(Oc2ccc3c(c2)C[C@H](N)C(=O)N3O)c1 [Example 70, hydrochloride salt]      Met
3  N[C@H]1Cc2cc(Cl)cc(Cl)c2N(O)C1=O [Example 113]  Not met
4  Cc1ccccc1-c1ccc2c(c1)C[C@H](N)C(=O)N2O [Example 135, trifluoroacetate salt]  Not met

Q: A record lists N[C@H]1Cc2cc(Oc3cccc(OC(F)(F)F)c3)ccc2N(O)C1=O [Example 169, trifluoroacetate salt] . Is its IC50 below 100 nM?
A: Not met

Q: A record lists N[C@H]1Cc2cc(-c3ccc4c(c3)CCO4)ccc2N(O)C1=O [Example 138, trifluoroacetate salt] . Is its IC50 below 100 nM?
A: Not met

Q: A record lists N[C@H]1Cc2cc(Oc3ccc(F)c(C(F)(F)F)c3)ccc2N(O)C1=O [Example 159, trifluoroacetate salt] . Is its IC50 below 100 nM?
A: Not met

###

- measured target: human KAT II (hKAT II) enzyme (Homo sapiens, UniProt Q8N5Z0)
- measurement protocol: KAT II Inhibition Spectra Assay
- Assay type: biochemical
- condition summary: Table 5; hKAT II, decrease in OD370, 37° C., 15-20 h; read-out: KATII IC50
Structures can show the parent of a compound that is named as a salt.
measured metric: pIC50
Please keep in mind that pIC50 is minus log10 of the molar concentration; only the number is needed.

> print(dat)
                                   compound  meas.value
1  NC1Cc2ccc(-c3ccc(OC(F)(F)F)cc3)cc2N(O)C1=O (stereo not drawn) [Example 61, trifluoroacetate salt]        6.79
2               N[C@H]1Cc2c(F)cccc2N(O)C1=O        7.28
3  N[C@H]1Cc2cc(-c3ccc(C(F)(F)F)cc3)cc(C(F)(F)F)c2N(O)C1=O        5.88
4  COc1ccc2c(c1)N(O)C(=O)C(N)C2 (stereo not drawn)        7.98
5       N[C@H]1Cc2cc(OC(F)(F)F)ccc2N(O)C1=O        7.44

get_value(item= N[C@H]1Cc2ccc(OCc3ccccc3)cc2N(O)C1=O , readout=pIC50) returns 7.45

get_value(item= N[C@H]1Cc2cccc(C(F)(F)F)c2N(O)C1=O , readout=pIC50) returns 6.90

get_value(item= NC1Cc2cc(F)ccc2N(O)C1=O (stereo not drawn) [Example 2, hydrochloride salt] , readout=pIC50) returns 7.63

get_value(item= N[C@H]1Cc2cccc(F)c2N(O)C1=O , readout=pIC50) returns 7.10

get_value(item= NC1Cc2ccc(-c3cc(Cl)ccc3F)cc2N(O)C1=O (stereo not drawn) [Example 54, trifluoroacetate salt] , readout=pIC50) returns 6.86

get_value(item= NC1Cc2ccc(-c3cccc(Cl)c3)cc2N(O)C1=O (stereo not drawn) [Example 52, trifluoroacetate salt] , readout=pIC50) returns 6.86

get_value(item= N[C@@H]1Cc2ccc(Br)cc2N(O)C1=O , readout=pIC50) returns 6.88

get_value(item= COc1ccc(F)cc1-c1ccc2c(c1)N(O)C(=O)C(N)C2 (stereo not drawn) [Example 59, trifluoroacetate salt] , readout=pIC50) returns 6.81

###

- measured target: UniProt Q8N5Z0
- measurement protocol: KAT II Inhibition Spectra Assay
- Type: biochemical
- condition summary: Table 6; hKAT II, decrease in OD370, 37° C., 15-20 h; read-out: KATII IC50
Structures can show the parent of a compound that is named as a salt.
measured metric: pIC50
Please keep in mind that pIC50 is minus log10 of the molar concentration; only the number is needed.

Solved cases (3 shown):
> print(dat)
                                   molecule  measured.metric  meas.value
1  NC1Cc2cc(Oc3ccc(Cl)cc3)ccc2N(O)C1=O (stereo not drawn) [Example 105]            pIC50        7.17
2  N[C@H]1Cc2cc(-c3cccc(C(F)(F)F)c3)ccc2N(O)C1=O [Example 144, trifluoroacetate salt]            pIC50        6.84
3  Cc1nc2c(cc1Cc1ccccc1)C[C@H](N)C(=O)N2O [Example 128]            pIC50        7.59

get_value(item= Cl.N[C@H]1Cc2cc(Oc3ccccc3)ccc2N(O)C1=O [Example 71, hydrochloride salt] , readout=pIC50) returns 7.64

get_value(item= N[C@H]1Cc2cc(-c3ccc(Cl)cc3)ccc2N(O)C1=O [Example 140, trifluoroacetate salt] , readout=pIC50) returns 6.60

get_value(item= COc1ccc(Oc2ccc3c(c2)CC(N)C(=O)N3O)cn1 (stereo not drawn) [Example 171, ammonium salt] , readout=pIC50) returns 7.37

get_value(item= N[C@H]1Cc2cccc(-c3ccccc3)c2N(O)C1=O [Example 97] , readout=pIC50) returns 6.50

get_value(item= N#Cc1ccccc1Oc1ccc2c(c1)CC(N)C(=O)N2O (stereo not drawn) [Example 82] , readout=pIC50) returns 7.39

get_value(item= N[C@H]1Cc2cc(-c3ccc(F)cc3)ccc2N(O)C1=O [Example 142, trifluoroacetate salt] , readout=pIC50) returns 6.99

get_value(item= N[C@H]1Cc2cc(Oc3ccc(Cl)cc3)cnc2N(O)C1=O [Example 124] , readout=pIC50) returns 7.45

get_value(item= COc1cc2c(cc1Cc1cccc(C#N)c1)C[C@H](N)C(=O)N2O [Example 126] , readout=pIC50) returns 7.51

get_value(item= N[C@H]1Cc2cc(-c3cccc(OC(F)(F)F)c3)ccc2N(O)C1=O [Example 131, trifluoroacetate salt] , readout=pIC50) returns 6.61

get_value(item= N[C@H]1Cc2cc(-c3cccc(Cl)c3Cl)ccc2N(O)C1=O [Example 145, trifluoroacetate salt] , readout=pIC50) returns 6.75

get_value(item= N[C@H]1Cc2ccc3c(c2N(O)C1=O)CCO3 [Example 81] , readout=pIC50) returns 6.67

get_value(item= N#Cc1ccc(Oc2ccc3c(c2)CC(N)C(=O)N3O)cc1 (stereo not drawn) [Example 99] , readout=pIC50) returns 7.70

get_value(item= N[C@H]1Cc2cc(Oc3cccc(C(F)(F)F)c3)cnc2N(O)C1=O [Example 79] , readout=pIC50) returns 7.53

get_value(item= NC1Cc2cc(Oc3ccc(F)cc3)ccc2N(O)C1=O (stereo not drawn) [Example 108] , readout=pIC50) returns 7.15

get_value(item= N[C@H]1Cc2cc(-c3cc(F)ccc3F)ccc2N(O)C1=O [Example 133, trifluoroacetate salt] , readout=pIC50) returns 7.06

get_value(item= COc1ccc(-c2ccc3c(c2)C[C@H](N)C(=O)N3O)c(C)c1 [Example 137, trifluoroacetate salt] , readout=pIC50) returns 7.16

###

Reported IC50 by item:
- measured target: UniProt:Q8N5Z0
- measurement protocol: KAT II Inhibition Spectra Assay
- Type: biochemical
- condition summary: Table 6; hKAT II, decrease in OD370, 37° C., 15-20 h; read-out: KATII IC50
Where a name gives a salt, the structure may show the parent alone.
Give the value; after it, write the unit.

Solved cases (3 shown):
> print(dat)
                                   compound  meas.value
1  N[C@H]1Cc2cc(-c3c(F)cccc3F)ccc2N(O)C1=O [Example 148, trifluoroacetate salt]     76.1 nM
2  COc1ccc(-c2ccc3c(c2)C[C@H](N)C(=O)N3O)cc1 [Example 153, trifluoroacetate salt]      162 nM
3  N[C@H]1Cc2cc(Oc3ccc(F)c(Cl)c3)ccc2N(O)C1=O [Example 156, trifluoroacetate salt]     86.7 nM

Now consider a different compound.
Kindly note: UniProt:Q8N5Z0, N[C@H]1Cc2cc(-c3ccc(F)cc3F)ccc2N(O)C1=O [Example 147, trifluoroacetate salt] , IC50 value reported: 75.6 nM

###

Reported IC50 by item:
- measured target: human KAT II (hKAT II) enzyme (Homo sapiens, UniProt Q8N5Z0)
- measurement protocol: KAT II Inhibition Spectra Assay
- Assay type: biochemical
- condition summary: Table 5; hKAT II, decrease in OD370, 37° C., 15-20 h; read-out: KATII IC50
Where a name gives a salt, the structure may show the parent alone.
The reply should be a number in nM, with the unit left off.

get_value(item= NC1Cc2cc(C(F)(F)F)ccc2N(O)C1=O (centres unmarked) [Example 10, hydrochloride salt] , readout=IC50) returns 73.7

get_value(item= NC1Cc2ccc(-c3ccccc3Cl)cc2N(O)C1=O (centres unmarked) [Example 45, trifluoroacetate salt] , readout=IC50) returns 235

get_value(item= N[C@H]1Cc2cc(Cl)cc(C(F)(F)F)c2N(O)C1=O [Example 35] , readout=IC50) returns 49.2
